Tested on: Fibroblast
assay-comment: Multiplex assay against human fibroblast
Format: toxicity, cell-based
condition-parameters: 48 h, 1 µM, compound concentration 1 uM, replicate 2
measured-attribute: Population Fragmented Nuclei (%)

molecule: Cc1cc(-c2ccc3c(c2)CC[C@H]3N2CC3(CCN(C(=O)Cc4cn5cc(C)sc5n4)CC3)C2)ncn1 [PF-5190457]
measurement: 32
--
molecule: CN1C[C@H](C(=O)N[C@]2(C)O[C@@]3(O)[C@@H]4CCCN4C(=O)[C@H](Cc4ccccc4)N3C2=O)C[C@@H]2c3cccc4[nH]cc(c34)C[C@H]21.CS(=O)(=O)O [DIHYDROERGOTAMINE MESYLATE]
measurement: 38
--
molecule: CN(C)C/C=C/C(=O)Nc1ccc(C(=O)N2CCCC(Nc3ncc(Cl)c(-c4c[nH]c5ccccc45)n3)C2)cc1 (configuration not stated)
measurement: 35
--
molecule: CC(C)(C)c1ccc(CSc2cnn(C(C)(C)C)c(=O)c2Cl)cc1 [PYRIDABEN]
measurement: 43
--
molecule: N[C@](CC1c2ccccc2Oc2ccccc21)(C(=O)O)[C@H]1C[C@@H]1C(=O)O
measurement: 36
--
molecule: Cc1c(Cc2ccc3ccccc3n2)c2cc(F)ccc2n1CC(=O)O [TIMAPIPRANT]
measurement: 36
--
molecule: COc1ccc2c(c1OCc1ccccc1)C[C@@H](C(=O)O)N(C(=O)C(c1ccccc1)c1ccccc1)C2 [OLODANRIGAN]
measurement: 31
--
molecule: Nc1nc(CC(=O)Nc2ccc(CCNC[C@H](O)c3ccccc3)cc2)cs1 [MIRABEGRON]
measurement: 40
--
molecule: COc1cc(C(=O)N2CC[C@@H](O)[C@@H](N)C2)cc2nc(-c3cc4ccccc4n3CC3CC3)n(C)c12.Cl
measurement: 38
--
molecule: CCCCC[C@H](O)/C=C/[C@H]1[C@H](O)CC(=O)[C@@H]1CCCCCCC(=O)O [ALPROSTADIL]
measurement: 26
--
molecule: CC(C)C[C@H](CO)Nc1nc(S[C@@H](C)c2ccccc2)nc2nc(N)sc12 [AZD-8797]
measurement: 30
--
molecule: CSc1nc(NC2CCCC2)c([N+](=O)[O-])c(NC2CCCC2)n1 [GS-39783]
measurement: 41
--
molecule: Cc1ccc(OCC(O)C(C)NC(C)C)c2c1CCC2.Cl (configuration not stated)
measurement: 37
--
molecule: Cc1nn(C)c2nc(NNC(=O)Nc3cc(Cl)nc(Cl)c3)cc(C(C)C)c12
measurement: 34
--
molecule: CN1CCC(C(=O)c2cccc(NC(=O)c3c(F)cc(F)cc3F)n2)CC1
measurement: 42
--
molecule: CC(C)(O)C(=O)N1CCN(c2ccc(C(F)(F)F)c(C3=C(c4c[nH]c5ccccc45)C(=O)NC3=O)c2)CC1
measurement: 33
--
molecule: O=c1ccc2ccc(OCCCCN3CCN(c4cccc5sccc45)CC3)cc2[nH]1 [BREXPIPRAZOLE]
measurement: 42

Hey, just so you know, these numbers are from ChEMBL document CHEMBL5058577.
